TESTED SYSTEM: HIV-1 Env of isolate MGRM-D-019 (subtype D) (HIV-1)
EXPERIMENT: cell-based or functional assay
Entries and their IC50 (neutralization)

{"BINDER": "PGT-131 (antibody, V domains shown) VH: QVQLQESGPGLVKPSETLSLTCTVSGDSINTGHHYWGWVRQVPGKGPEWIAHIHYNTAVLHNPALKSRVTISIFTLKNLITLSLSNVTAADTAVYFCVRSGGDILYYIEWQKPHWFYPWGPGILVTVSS VL: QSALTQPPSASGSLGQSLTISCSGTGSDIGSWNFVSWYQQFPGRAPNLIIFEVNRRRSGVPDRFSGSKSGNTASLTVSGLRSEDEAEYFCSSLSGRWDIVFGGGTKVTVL", "IC50 (neutralization)": "> 50 µg/mL"}

Let us examine a further case.
Exercise: Dear colleague, I am looking for the recorded IC50 (neutralization) of the following binder: PGT-128 (antibody, V domains shown) VH: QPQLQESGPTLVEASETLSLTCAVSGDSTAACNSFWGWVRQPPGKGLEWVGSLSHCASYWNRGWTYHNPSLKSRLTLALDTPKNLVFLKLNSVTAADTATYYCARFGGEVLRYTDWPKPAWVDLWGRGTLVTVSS VL: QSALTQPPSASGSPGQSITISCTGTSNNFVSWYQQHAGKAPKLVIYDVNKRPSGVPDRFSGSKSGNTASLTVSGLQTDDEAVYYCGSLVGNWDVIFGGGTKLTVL
Solution: > 50 µg/mL
